The measured values listed here are drawn from patent US20220233661A1.

- Tested on: anti-peptide IgG in plasma
- testDetails: Test Example 4: peptide-specific IgG titer pre and post vaccination, bead-based multiplexed Luminex assay
- Format: in vivo, human
- cond: Table 20; patients showing both <64% neutrophil and ≥26% lymphocyte
assayMetric: Post vaccination IgG Median (FIU)

Use the examples below as a reference point.
GIHKQKEKSR (listed as Homo sapiens) [PAP-248]    1,981 FIU
HYTNASDGL (listed as Homo sapiens) [Lck-208]    9,551 FIU
DYSARWNEI (listed as Homo sapiens) [SART2-93]    8,633 FIU
TYSVSFDSL (listed as Homo sapiens) [PSMA-624]    10,984 FIU
ASLDSDPWV (listed as Homo sapiens) [WHSC2-103]    916 FIU

Hello, I would appreciate it if you could give Post vaccination IgG Median (FIU) for each entry below.
1. ILGELREKV (listed as Homo sapiens) [WHSC2-141]
2. QIRPIFSNR (listed as Homo sapiens) [SART3-734]

## Output
1: 18,171 FIU; 2: 7,098 FIU
